- Tested on: Plasmodium berghei
- assay_protocol: Luciferase/luciferin-expressing antifolate-resistant parasites were used to infect a culture of HepG2 cells that were pre-incubated with compounds. Infected hepatocytes emit light due to the luciferase reaction. Assay results are presented as the percent inhibition of light emission compared to control. […]
- Assay type: functional
- setup_conditions: sporozoite, read-out: LUCIFERASE INFECTION ASSAY - IC50
pIC50: −log10 of the molar value.
readout_type: pIC50

# molecule, pIC50
records = [
    ("O=C(c1c[nH]c2ccccc12)C(NCc1ccc(F)cc1)c1ccccc1 (stereo unspecified)", "< 5.00"),
    ("CCOC(=O)c1ccc2c(c1)C1C=CCC1C(c1cccnc1)N2 (stereo unspecified)", "< 4.99"),
    ("CNC(=O)c1ccc(C)c(C)c1", "< 5.00"),
    ("O=C(Nc1nc2ccccc2[nH]1)c1oc2ccccc2c1COc1ccccc1", "< 5.00"),
    ("C=CCn1c(-c2c(C)oc3ccccc23)cs/c1=N\\S(=O)(=O)c1cccs1", "< 5.00"),
]

// switching to the query molecule
Item under review: `Cc1cnc(Nc2ncnc3ccccc23)s1` . Reported pIC50? < 5.00

* * *

- System: Plasmodium berghei
- assay_protocol: Luciferase/luciferin-expressing antifolate-resistant parasites were used to infect a culture of HepG2 cells that were pre-incubated with compounds. Infected hepatocytes emit light due to the luciferase reaction. Assay results are presented as the percent inhibition of light emission compared to control. […]
- Type: functional
- setup_conditions: sporozoite, PBLUC_HILL_SLOPE 13.5, PBLUC_R_SQUARED 0.253, read-out: LUCIFERASE INFECTION ASSAY - IC50
pIC50: −log10 of the molar value.
readout_type: pIC50

Notebook entry, Plasmodium berghei assay: pIC50 of `COc1ccc(S(=O)(=O)N2CCc3ccccc32)cc1C(=O)Oc1c(Cl)cc(Cl)c2ccc(C)nc12` = ? < 5.00

* * *

- Tested on: Plasmodium berghei
- assay_protocol: Luciferase/luciferin-expressing antifolate-resistant parasites were used to infect a culture of HepG2 cells that were pre-incubated with compounds. Infected hepatocytes emit light due to the luciferase reaction. Assay results are presented as the percent inhibition of light emission compared to control. […]
- Assay type: functional
- setup_conditions: sporozoite, HEPG2TOX_HILL_SLOPE 0.509, HEPG2TOX_R_SQUARED 0.727, PBLUC_HILL_SLOPE 1.23, PBLUC_R_SQUARED 0.54, read-out: LUCIFERASE INFECTION ASSAY - IC50
readout_type: IC50

Item under review: `Cc1nn(-c2ccccc2)c(Oc2ccccc2)c1/C=C1\C(=O)Nc2ccccc21` . Reported IC50? 328 nM

* * *

- Tested on: Plasmodium berghei
- assay_protocol: Luciferase/luciferin-expressing antifolate-resistant parasites were used to infect a culture of HepG2 cells that were pre-incubated with compounds. Infected hepatocytes emit light due to the luciferase reaction. Assay results are presented as the percent inhibition of light emission compared to control. […]
- Format: functional
- setup_conditions: sporozoite, read-out: LUCIFERASE INFECTION ASSAY - IC90
readout_type: IC90

# compound, readout_type, reported
data = [
    ("Cc1c(C)c(C)c(S(=O)(=O)Oc2ccccc2N2CC(C)OC(C)C2)c(C)c1C (stereo not given)", "IC90", "> 7.9 µM"),
    ("COC(=O)c1ccc2c(=O)n(-c3ccccc3)c(SC3CCCCC3=O)nc2c1 (stereo not given)", "IC90", "> 10 µM"),
    ("CCCCCCCCCCCCSC(=S)c1c(C)[nH]n(-c2ccccc2)c1=O", "IC90", "> 7.88 µM"),
    ("CC(C)CN1C(=O)N(C)C(=O)C12CCN(Cc1cc3ccccc3s1)CC2", "IC90", "> 8.56 µM"),
]

Item under review: `COc1ccccc1CN1C(=O)C=CC1=O` . Reported IC90? > 15.2 µM

Also, O=C1NC(c2ccc(N3CCCCC3)cc2)Nc2ccccc21 (stereo not given) please. 0.743 µM

Also, `O=C(Nc1ccc(Oc2cc(C(F)(F)F)cc(C(F)(F)F)c2)cc1)c1cccs1` please. 0.356 µM

Also, `Cc1cc(-c2cc(C(=O)NCc3ccc(Cn4cncn4)cc3)c3cnn(C(C)C)c3n2)c(C)s1` please. > 10 µM

Also, `Cc1ccc(Nc2nc(C[N+]3(Cc4csc(Nc5ccc(C)cc5)n4)CCN(Cc4ccc(C#N)cc4)CC3)cs2)cc1` please. > 10 µM

Also, `CCOC(=O)/C=C/C(=O)OCC(=O)NC(c1ccccc1)c1ccccc1` please. > 10 µM

* * *

- System: Plasmodium berghei
- assay_protocol: Luciferase/luciferin-expressing antifolate-resistant parasites were used to infect a culture of HepG2 cells that were pre-incubated with compounds. Infected hepatocytes emit light due to the luciferase reaction. Assay results are presented as the percent inhibition of light emission compared to control. […]
- Type: functional
- setup_conditions: sporozoite, PBLUC_HILL_SLOPE 0.947, PBLUC_R_SQUARED 0.583, read-out: LUCIFERASE INFECTION ASSAY - IC50
readout_type: pIC50
Friendly reminder that pIC50 comes from taking -log10 of the concentration in mol/L.

Item under review: `O=C1c2ccccc2C(=O)c2sccc21` . Reported pIC50? 5.55

* * *

- Tested on: Plasmodium berghei
- assay_protocol: Luciferase/luciferin-expressing antifolate-resistant parasites were used to infect a culture of HepG2 cells that were pre-incubated with compounds. Infected hepatocytes emit light due to the luciferase reaction. Assay results are presented as the percent inhibition of light emission compared to control. […]
- Format: functional
- setup_conditions: sporozoite, PBLUC_HILL_SLOPE 5.13, PBLUC_R_SQUARED 0.485, read-out: LUCIFERASE INFECTION ASSAY - IC50
readout_type: IC50 (µM)
Record the value in µM, omitting the unit from your answer.

Notebook entry, Plasmodium berghei assay: IC50 of `CCN(CC)S(=O)(=O)c1cc(C)c(C)c(NC(=O)c2cc(C3CC3)nc3onc(C)c23)c1` = ? 6.28

* * *

- Tested on: Plasmodium berghei
- assay_protocol: Luciferase/luciferin-expressing antifolate-resistant parasites were used to infect a culture of HepG2 cells that were pre-incubated with compounds. Infected hepatocytes emit light due to the luciferase reaction. Assay results are presented as the percent inhibition of light emission compared to control. […]
- Assay type: functional
- setup_conditions: sporozoite, HEPG2TOX_HILL_SLOPE 3.22, HEPG2TOX_R_SQUARED 0.951, PBLUC_HILL_SLOPE 11.1, PBLUC_R_SQUARED 0.17, read-out: LUCIFERASE INFECTION ASSAY - IC50
readout_type: pIC50
Friendly reminder that pIC50 comes from taking -log10 of the concentration in mol/L.

Notebook entry, Plasmodium berghei assay: pIC50 of `Cc1ccccc1OCCN(C)C(=O)NCCc1cccs1` = ? 5.47

* * *

- Tested on: Plasmodium berghei
- assay_protocol: Luciferase/luciferin-expressing antifolate-resistant parasites were used to infect a culture of HepG2 cells that were pre-incubated with compounds. Infected hepatocytes emit light due to the luciferase reaction. Assay results are presented as the percent inhibition of light emission compared to control. […]
- Type: functional
- setup_conditions: sporozoite, PBLUC_HILL_SLOPE 3.99, PBLUC_R_SQUARED 0.348, read-out: LUCIFERASE INFECTION ASSAY - IC50
readout_type: IC50 (µM)
Record the value in µM, omitting the unit from your answer.

Item under review: `COc1cc(OC)cc(-c2cnc3cnc(-c4cccc(OC(C)C)c4)cn23)c1` . Reported IC50? 6.48

* * *

- Test system: Plasmodium berghei
- assay_protocol: Luciferase/luciferin-expressing antifolate-resistant parasites were used to infect a culture of HepG2 cells that were pre-incubated with compounds. Infected hepatocytes emit light due to the luciferase reaction. Assay results are presented as the percent inhibition of light emission compared to control. […]
- Assay type: functional
- setup_conditions: sporozoite, PBLUC_HILL_SLOPE 1.6, PBLUC_R_SQUARED 0.598, read-out: LUCIFERASE INFECTION ASSAY - IC50
readout_type: IC50 (µM)
Record the value in µM, omitting the unit from your answer.

Item under review: `O=C(Nc1ccccc1O)c1ccc(Cn2ccnc2)cc1` . Reported IC50? 1.57

* * *

- Tested on: Plasmodium berghei
- assay_protocol: Luciferase/luciferin-expressing antifolate-resistant parasites were used to infect a culture of HepG2 cells that were pre-incubated with compounds. Infected hepatocytes emit light due to the luciferase reaction. Assay results are presented as the percent inhibition of light emission compared to control. […]
- Format: functional
- setup_conditions: sporozoite, FFLUC_HILL_SLOPE 3.8, FFLUC_R_SQUARED 0.785, read-out: LUCIFERASE INFECTION ASSAY - IC50
pIC50: −log10 of the molar value.
readout_type: pIC50

Item under review: `Cc1ccc2c(c1)/C(=N\NC(=O)c1nc(Cl)c(Cl)c(N)c1Cl)C(=O)N2` . Reported pIC50? < 5.00

* * *

- System: Plasmodium berghei
- assay_protocol: Luciferase/luciferin-expressing antifolate-resistant parasites were used to infect a culture of HepG2 cells that were pre-incubated with compounds. Infected hepatocytes emit light due to the luciferase reaction. Assay results are presented as the percent inhibition of light emission compared to control. […]
- Format: functional
- setup_conditions: sporozoite, read-out: LUCIFERASE INFECTION ASSAY - IC90
readout_type: IC90 (µM)
Record the value in µM, omitting the unit from your answer.

Here's what some known entries look like.
# molecule, experimental_target, IC90 [µM]
records = [
    ("CC(C)N(C(=O)CSC1=NC(c2ccccc2)C2=C(N1)/C(=C/c1ccccc1)CCC2)c1ccccc1 (stereo not given)", "Plasmodium berghei", 9.39),
    ("Cc1ccc2ncnc(NCCc3ccccc3)c2c1", "Plasmodium berghei", 2.82),
    ("O=C(Nc1nc2ccc(OC(F)(F)F)cc2s1)c1cnccn1", "Plasmodium berghei", 3.41),
    ("COc1ccc(COC(=O)Cc2c(C)[nH]c(-c3ccccn3)nc2=O)cc1OC", "Plasmodium berghei", 8.13),
    ("CCn1c2ccccc2c2cc(Nc3cc(-c4cc(OC)c(OC)c(OC)c4)ncn3)ccc21", "Plasmodium berghei", 1.29),
]

// switching to the query molecule
Item under review: `COc1ccc(-c2cnc3ccc(N[C@H](CO)C(C)C)nn23)cn1` . Reported IC90? 4.4
